Test system: RPMI-8226 leukemia
EXPERIMENTAL DETAILS: NCI-60 one-dose screen, 48 h (100 = growth as untreated, 0 = no growth, -100 = all killed)
RUN PARAMETERS: 10 µM unless noted
About 83,000 compounds went through this panel and 20% of them were active in at least one assay; those are over-represented in the sample as a whole.
MEASURED PROPERTY: growth (%)

CNC(=O)c1c(NC(=O)c2ccccc2C(F)(F)F)sc2c1CCC(=O)C2	-0.77
COc1c(N2CC3CCCNC3C2)c(F)cc2c(=O)c(C(=O)N/N=C/c3ccc(N(C)C)cc3)cn(C3CC3)c12 (stereo not drawn)	62.9
C#C[C@]1(O)CC[C@H]2[C@@H]3CC=C4c5sc(-c6ccc(C)cc6)nc5CC[C@]4(C)[C@H]3CC[C@@]21C	-27.4
